List of kon values.
subject-of-test: T1, human E-selectin extracellular domain with 10 His purification tail (human, UniProt P16581 22-556)
T1 construct: also called soluable human E-selectin extracellular domain; rhE-Selectin
T1 sequence: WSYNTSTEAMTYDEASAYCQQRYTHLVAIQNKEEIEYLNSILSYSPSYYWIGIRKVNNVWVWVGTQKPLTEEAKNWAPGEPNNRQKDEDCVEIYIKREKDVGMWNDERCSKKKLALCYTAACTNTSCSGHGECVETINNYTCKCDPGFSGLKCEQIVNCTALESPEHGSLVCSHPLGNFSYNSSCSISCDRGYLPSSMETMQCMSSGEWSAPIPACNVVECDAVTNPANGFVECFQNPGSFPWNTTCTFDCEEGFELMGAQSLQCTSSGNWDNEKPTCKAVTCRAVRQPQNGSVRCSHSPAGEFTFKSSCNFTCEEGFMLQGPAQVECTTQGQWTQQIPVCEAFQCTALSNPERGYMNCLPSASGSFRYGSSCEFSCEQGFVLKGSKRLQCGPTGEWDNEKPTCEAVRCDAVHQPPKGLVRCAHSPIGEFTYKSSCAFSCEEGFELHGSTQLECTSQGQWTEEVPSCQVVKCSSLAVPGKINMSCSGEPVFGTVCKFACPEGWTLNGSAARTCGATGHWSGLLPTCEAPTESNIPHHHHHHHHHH
assay-text: SPR, antibody captured, E-selectin analyte
The response must be a number in M⁻¹ s⁻¹ with no trailing unit.

binder	property-name	readout-number
anti-E-selectin antibody 0039 chimera (antibody, human IgG1, kappa, V domains shown, rat VH/VL on effector-null human IgG1 and human kappa) VH: QVQLKETGPGLVQPTQTLSITCTVSGFSLTGYYMQWVRQTPGKGLEWMGFIRSSGSTEYNSEFKSRLSISRDTSKNQVFLKMNSLKTEDTGVYYCARCPYKYSSFVYVGVMDAWGQGAPVTVSS VL: EIVMTQSPTSMSTSIGERVTLNCKASQTVGINVDWYQQTPGQPPKLLIYGASNRHTGVPDRFTGSGFGRDFTLTISNVEAEDLAVYCCLQYGSIPHTFGPGTKLELKR	kon	64200

Endpoint output: kon of anti-E-selectin antibody 0180 chimera (antibody, human IgG1, kappa, V domains shown, rat VH/VL on effector-null human IgG1 and human kappa) VH: EVQLQQSGAELGKPGTSVKLSCKVSGYKIRSSYMHWVNQRPGKGLEWIGRIDPANGNTIYGDKFKSKATLTSDTSSNTAYIQLSQLKSDDTAIYFCAIDIGTTFDYWGQGVMVTVSS VL: DIQMTQSPSFLSASVGDRVTINCKASQHINRYLNWYQQKLGEAPKLLIYDANNLQTGIPSRFSGSGSGTDFTLTISSLQPEDVATYFCLQHNSWPNTFGAGTKLELKR . Value?
262000

Param item = anti-E-selectin antibody 0164 chimera (antibody, human IgG1, kappa, V domains shown, rat VH/VL on effector-null human IgG1 and human kappa) VH: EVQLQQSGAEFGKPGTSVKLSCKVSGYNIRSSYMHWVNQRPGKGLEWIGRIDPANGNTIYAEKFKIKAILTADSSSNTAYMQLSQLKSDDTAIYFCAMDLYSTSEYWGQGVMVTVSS VL: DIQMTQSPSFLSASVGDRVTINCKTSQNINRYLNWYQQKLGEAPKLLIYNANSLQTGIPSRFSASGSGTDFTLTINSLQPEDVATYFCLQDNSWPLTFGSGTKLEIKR ; retrieve measured kon.
207000

Recorded kon of anti-E-selectin antibody 0170 chimera (antibody, human IgG1, kappa, V domains shown, rat VH/VL on effector-null human IgG1 and human kappa) VH: EVQLQQSGAELGKPGTSVKLSCKVSGYSIRSTYMHWVNQRPGKGLEWVGRIDPANGNTIYAERFKNKATLTADTSSNTAYMQLSQLKSDDTAIYFCAVEILGIFDYWGQGVMVTVSS VL: DIQMTQSPSFLSASVGDRVTINCKASQNIDKYLDWYQQKLGEAPKLLMYNTNSLHTGIPSRFSGSGSGTDFTLTISSLQPEDVATYFCLQHNSGYTFGAGTKLELKR , please.
87400
